Tested on: isolated murine gastric glands of mouse (acid secretion)
protocolText: In vitro inhibition of gastric acid secretion (14C-aminopyrine accumulation in isolated mouse gastric glands)
Type: cell-based
assayConditions: 1 h, 60 min at 37 °C, secretagogue stimulated
assayReadout: IC50 (µM)
State the answer as a number, implicitly in µM.

Examples with answers:
molecule	readingUnit	observedResult
O=C(c1cccc(Cl)c1)c1nsc(N2CCN(c3ccccn3)CC2)n1	µM	25
OC(c1ccccc1)c1nsc(N2CCN(c3ccccn3)CC2)n1 (stereo not drawn)	µM	30
COc1nsc(N2CCN(c3ccccn3)CC2)n1	µM	100
c1ccc(-c2nsc(N3CCN(c4ccccn4)CC3)n2)cc1	µM	4
O=C(c1ccccc1)c1nsc(N2CCN(C(c3ccccc3)c3ccc(Cl)cc3)CC2)n1 (stereo not drawn)	µM	50

Proceed to the following item.
Entry O=C(c1ccccc1)c1nsc(N2CCN(c3ccccn3)CC2)n1 needs its IC50 filled in; supply it.
6
